Conditions: 343.15 K; 101.33 kPa; Liquid; Vibrating tube method
Endpoint: mass density (kg/m3)

[
  {
    "Compound": "CC[n+]1ccn(C)c1.N[C@@H](CO)C(=O)[O-] [3-ethyl-1-methyl-1H-imidazolium L-serinate]",
    "Endpoint": "mass density",
    "Experimental Value": 1166.3
  },
  {
    "Compound": "CCn1cc[n+](C)c1.NCC(=O)[O-] [1-ethyl-3-methylimidazolium ammonioacetate]",
    "Endpoint": "mass density",
    "Experimental Value": 1126.3
  },
  {
    "Compound": "CCn1cc[n+](C)c1.C[C@H](N)C(=O)[O-] [1-ethyl-3-methylimidazolium L-alaninate]",
    "Endpoint": "mass density",
    "Experimental Value": 1107.8
  },
  {
    "Compound": "CCn1cc[n+](C)c1.O=C([O-])[C@@H]1CCCN1 [1-ethyl-3-methyl-1H-imidazolium L-prolinate]",
    "Endpoint": "mass density",
    "Experimental Value": 1126.93
  }
]
